Measured racemization half-life in aqueous buffer by item
ASSAY_METHOD_TEXT: Racemization half-life under biological buffer conditions (Na-phosphorate buffer pH 7.4, 37° C.)
MEASUREMENT_CONDITIONS: average of 3 tests ± SD

COMPOUND	racemization half-life in aqueous buffer (h)
O=C1CC[C@@H](N2C(=O)c3ccccc3C2=O)C(=O)N1 [(R)-TD, R-thalidomide]	4.92
Nc1cccc2c1CN([C@@H]1CCC(=O)NC1=O)C2=O (single isomer, unassigned) [(R*)-LL]	4.45
Nc1cccc2c1CN([C@H]1CCC(=O)NC1=O)C2=O (single isomer, unassigned) [(S*)-LL]	4.53
O=C1CC[C@H](N2C(=O)c3ccccc3C2=O)C(=O)N1 [(S)-TD, S-thalidomide]	4.43
